Test system: SW-620 colon
Test: NCI-60 one-dose screen, 48 h (100 = growth as untreated, 0 = no growth, -100 = all killed)
Conditions: 10 µM unless noted
This is part of a sample that, as a whole, favours compounds with a hit. Of some 83,000 tested, about 20% had one in any assay.
Binning scheme for growth: band 1 (below 30%), band 2 (30% to below 90%), band 3 (90% or more)

Input: Hi, small favor: classify "Cc1cc(N(CCCNc2ccnc3cc(Cl)ccc23)Cc2ccco2)nc(Cl)n1" by its growth when you get a moment.
Output: band 2

Input: Quick check: band for N#CC1=C(N)Oc2c(sc3c(F)cccc23)C1c1ccc(Cl)cc1 (stereo unspecified)
Output: band 1

Input: State the band of "Cn1c(=O)c2c(nc(N3CCCC3)n2C)n(C)c1=O"
Output: band 3

Input: Which band does COc1ccc(C2C(C#N)=C(N)Oc3c2sc2c(F)cccc32)cc1 (stereo unspecified) fall in?
Output: band 1

Input: Band of "CN1CCN(c2ccc3nc(-c4[nH]ncc4Nc4ncnc5c4OCCCN5)[nH]c3c2)CC1" ?
Output: band 1

Input: Lab note: which band did "CCNCCCn1c2c(c3ccc([N+](=O)[O-])cc3c1=O)C(=O)c1cc(OC)cnc1-2" land in?
Output: band 1

Input: Just checking, what class would you give "S=c1[nH]nc2ccccn12" here?
Output: band 3

Input: Form: Item = COC(=O)C(N)CSC(c1ccccc1)(c1ccccc1)c1ccccc1 (stereo unspecified) ; Class = ?
Output: band 1

Input: For this molecule, which bin applies? Cc1ccsc1-c1ccc2c(c1)COC2(CCCN(C)C)c1ccc(F)cc1 (stereo unspecified)
Output: band 2

Input: GET /class?item= "N=C(N)c1ccc(S(N)(=O)=O)cc1"
Output: band 3

Entry source: PubChem BioAssay (NCI)
